assayedTarget: UniProt Q00788
Sequence (Q00788 whole entry): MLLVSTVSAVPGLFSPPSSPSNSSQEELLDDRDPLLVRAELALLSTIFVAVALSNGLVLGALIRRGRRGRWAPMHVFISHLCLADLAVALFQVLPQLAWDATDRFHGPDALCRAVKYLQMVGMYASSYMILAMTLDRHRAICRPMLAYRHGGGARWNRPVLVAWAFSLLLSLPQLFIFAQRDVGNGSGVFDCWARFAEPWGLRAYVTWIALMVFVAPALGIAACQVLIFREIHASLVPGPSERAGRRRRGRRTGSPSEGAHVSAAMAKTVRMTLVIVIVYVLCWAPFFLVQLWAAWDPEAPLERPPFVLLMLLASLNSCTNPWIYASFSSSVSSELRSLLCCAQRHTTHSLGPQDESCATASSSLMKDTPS
measurementNotes: Binding affinity against Vasopressin V2 receptor was determined in Brattleboro rats
endpoint: IC50 (nM)
Reply with just the number (in nM).

Which measured IC50 value corresponds to `CC(C)NC(=O)C[C@H]1CCCN(C(=O)c2ccc(N3CCCC3)cc2Cl)c2ccccc21` ?
230
